Please respond with reported pIC50 for every item in the list.
# Protocol Text: Inhibition of Mycobacterium tuberculosis fatty acid synthase 1 expressed in Mycobacterium smegmatis mc2 2700 assessed as NADPH oxidation at 100 uM of NADPH by spectrophotometry
Numbers only, as −log10 of the molar value.

> print(dat)
                        molecule  measured.quantity  measurement
1           CCCOC(=O)c1cnc(F)cn1              pIC50         5.82
2     CC(C)(C)NC(=O)c1cnc(Cl)cn1              pIC50         5.06
3  NC(=O)c1cnccn1 [PYRAZINAMIDE]              pIC50         2.05
4              CCCOC(=O)c1cnccn1              pIC50         2.76
5      CC(C)(C)OC(=O)c1cnc(F)cn1              pIC50         5.37
6             NC(=O)c1cnc(Cl)cn1              pIC50         4.82
7     CC(C)(C)OC(=O)c1cnc(Cl)cn1              pIC50         4.82
8         CC(C)(C)OC(=O)c1cnccn1              pIC50         2.87
9          CCCOC(=O)c1cnc(Cl)cn1              pIC50         5.23

Let us examine a further case.
Request: What does the data say about its pIC50? Entry: CCCNC(=O)c1cnc(Cl)cn1
Response: 5.09
